This section presents pIC50 values reported for Aminopeptidase N (Sus scrofa) in the literature.
MEASURED TARGET: Aminopeptidase N (Sus scrofa)
Sequence (P15145 whole entry): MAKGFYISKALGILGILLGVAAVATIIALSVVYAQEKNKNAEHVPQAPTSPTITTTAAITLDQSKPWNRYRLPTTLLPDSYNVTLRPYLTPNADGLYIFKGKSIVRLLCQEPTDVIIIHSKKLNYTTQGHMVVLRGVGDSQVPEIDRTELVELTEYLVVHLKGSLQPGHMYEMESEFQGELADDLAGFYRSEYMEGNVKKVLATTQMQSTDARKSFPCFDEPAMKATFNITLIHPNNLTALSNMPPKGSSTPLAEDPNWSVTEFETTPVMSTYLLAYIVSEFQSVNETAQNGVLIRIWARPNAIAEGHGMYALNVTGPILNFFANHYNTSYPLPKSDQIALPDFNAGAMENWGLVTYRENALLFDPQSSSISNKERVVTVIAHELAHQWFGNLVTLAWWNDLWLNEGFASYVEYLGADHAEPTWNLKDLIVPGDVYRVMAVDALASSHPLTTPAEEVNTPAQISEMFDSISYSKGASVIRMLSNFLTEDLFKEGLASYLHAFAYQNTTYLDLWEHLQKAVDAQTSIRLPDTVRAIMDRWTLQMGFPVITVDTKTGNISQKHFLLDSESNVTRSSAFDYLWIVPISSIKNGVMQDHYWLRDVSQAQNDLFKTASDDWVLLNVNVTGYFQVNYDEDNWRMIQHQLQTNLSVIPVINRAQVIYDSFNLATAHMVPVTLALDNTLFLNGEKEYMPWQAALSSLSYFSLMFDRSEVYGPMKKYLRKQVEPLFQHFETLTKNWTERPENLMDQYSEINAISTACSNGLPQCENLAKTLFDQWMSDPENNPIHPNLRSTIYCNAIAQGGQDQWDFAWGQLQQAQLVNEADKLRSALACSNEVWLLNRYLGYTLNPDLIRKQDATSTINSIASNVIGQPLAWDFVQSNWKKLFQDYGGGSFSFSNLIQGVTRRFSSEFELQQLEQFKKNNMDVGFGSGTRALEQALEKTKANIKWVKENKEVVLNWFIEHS
Convention used: pIC50 is expressed as -log10 of the molar concentration.

Inquiry: Entry under review: CC(C)C[C@H](NC(=O)Nc1cccc2ccccc12)C(=O)NO . Reported pIC50?
Reply text: 7.00

Inquiry: Entry under review: CC(C)C[C@H](NC(=O)Nc1ccc(Cl)cc1Cl)C(=O)NO . Reported pIC50?
Reply text: 6.25

Inquiry: Entry under review: O=C(N[C@H](Cc1ccccc1)C(=O)NO)C1CCN(c2ncnc3[nH]ccc23)CC1 . Reported pIC50?
Reply text: 6.15

Inquiry: Entry under review: CC(C)C[C@H](NC(=O)Nc1ccc(F)cc1)C(=O)NO . Reported pIC50?
Reply text: 5.60

Inquiry: Entry under review: CC(C)C[C@H](NC(=O)[C@@H](O)[C@H](N)Cc1ccccc1)C(=O)NCCC(=O)OCn1cc(F)c(=O)[nH]c1=O . Reported pIC50?
Reply text: 6.17

Inquiry: Entry under review: N[C@@H](CNC(=O)[C@H](CS)NC(=O)c1ccc(Cl)cc1Cl)Cc1ccccc1 . Reported pIC50?
Reply text: 2.98

Inquiry: Entry under review: CC(C)C[C@H](NC(=O)NCc1ccccc1Cl)C(=O)NO . Reported pIC50?
Reply text: 6.66

Inquiry: Entry under review: O=C(/C=C/c1ccccc1)N[C@H](CC(=O)Nc1ccccc1Cl)C(=O)NO . Reported pIC50?
Reply text: 4.06

====

This section presents IC50 values reported for Aminopeptidase N (Sus scrofa) in the literature.
MEASURED TARGET: Aminopeptidase N (Sus scrofa)
Sequence (P15145 whole entry): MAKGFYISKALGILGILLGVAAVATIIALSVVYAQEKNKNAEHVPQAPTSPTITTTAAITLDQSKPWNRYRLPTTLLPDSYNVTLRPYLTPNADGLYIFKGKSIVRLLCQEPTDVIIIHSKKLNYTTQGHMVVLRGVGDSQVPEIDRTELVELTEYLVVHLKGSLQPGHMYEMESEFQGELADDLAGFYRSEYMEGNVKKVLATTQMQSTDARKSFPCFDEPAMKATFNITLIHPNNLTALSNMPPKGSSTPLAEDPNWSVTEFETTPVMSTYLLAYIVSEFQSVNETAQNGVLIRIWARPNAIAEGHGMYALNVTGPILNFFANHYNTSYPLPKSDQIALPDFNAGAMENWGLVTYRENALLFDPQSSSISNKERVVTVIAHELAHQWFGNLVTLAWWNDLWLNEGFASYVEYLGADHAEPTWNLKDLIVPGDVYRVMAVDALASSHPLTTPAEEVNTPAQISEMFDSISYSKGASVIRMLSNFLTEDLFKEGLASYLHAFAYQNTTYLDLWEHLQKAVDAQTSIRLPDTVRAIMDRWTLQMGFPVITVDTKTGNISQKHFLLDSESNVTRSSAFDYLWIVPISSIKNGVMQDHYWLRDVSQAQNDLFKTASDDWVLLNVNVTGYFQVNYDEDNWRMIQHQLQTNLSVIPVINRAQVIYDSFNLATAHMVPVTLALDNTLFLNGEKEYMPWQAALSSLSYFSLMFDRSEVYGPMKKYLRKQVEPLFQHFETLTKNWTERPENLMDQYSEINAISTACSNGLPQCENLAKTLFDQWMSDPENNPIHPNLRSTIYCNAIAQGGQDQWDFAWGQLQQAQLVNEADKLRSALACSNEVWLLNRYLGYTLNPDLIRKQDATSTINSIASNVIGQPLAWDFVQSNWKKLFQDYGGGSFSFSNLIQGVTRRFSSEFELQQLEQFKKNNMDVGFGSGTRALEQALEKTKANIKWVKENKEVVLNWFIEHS
Only the number, expressed in µM, is required.

The cases that follow already have their IC50 on record.
1) CC(C)C[C@H](NC(=O)NCc1cn(Cc2c(Cl)cccc2Cl)nn1)C(=O)NO; 0.58
2) COc1ccc(NC(=O)N[C@@H](CC(C)C)C(=O)NO)c(OC)c1; 0.46

Inquiry: Entry under review: N[C@@H](CNC(=O)[C@H](Cc1ccccc1)NC(=O)[C@@H](N)Cc1ccccc1)Cc1ccccc1 . Reported IC50?
Reply text: 15.5

Inquiry: Entry under review: O=C(NO)[C@H](NC(=O)N1CCN(c2ncnc3[nH]ccc23)CC1)c1ccccc1 . Reported IC50?
Reply text: 1.04

Inquiry: Entry under review: NCCCC[C@H](N)C(=O)N[C@H]1CC(=O)N(CC(=O)NO)C1=O . Reported IC50?
Reply text: 1

Inquiry: Entry under review: COc1ccc(CNC(=S)P(=O)(O)C(C)N)cc1 (centres undefined) . Reported IC50?
Reply text: 1.12

Inquiry: Entry under review: CC(C)C[C@H](N)C(=O)N[C@H](Cc1ccccc1)C(=O)NC[C@H](N)[C@@H](O)c1ccc([N+](=O)[O-])cc1 . Reported IC50?
Reply text: 9.4

Inquiry: Entry under review: CC(C)C[C@H](NC(=O)Nc1c(F)cccc1F)C(=O)NO . Reported IC50?
Reply text: 0.23

====

MEASURED TARGET: Aminopeptidase N (Sus scrofa)
Sequence (P15145 whole entry): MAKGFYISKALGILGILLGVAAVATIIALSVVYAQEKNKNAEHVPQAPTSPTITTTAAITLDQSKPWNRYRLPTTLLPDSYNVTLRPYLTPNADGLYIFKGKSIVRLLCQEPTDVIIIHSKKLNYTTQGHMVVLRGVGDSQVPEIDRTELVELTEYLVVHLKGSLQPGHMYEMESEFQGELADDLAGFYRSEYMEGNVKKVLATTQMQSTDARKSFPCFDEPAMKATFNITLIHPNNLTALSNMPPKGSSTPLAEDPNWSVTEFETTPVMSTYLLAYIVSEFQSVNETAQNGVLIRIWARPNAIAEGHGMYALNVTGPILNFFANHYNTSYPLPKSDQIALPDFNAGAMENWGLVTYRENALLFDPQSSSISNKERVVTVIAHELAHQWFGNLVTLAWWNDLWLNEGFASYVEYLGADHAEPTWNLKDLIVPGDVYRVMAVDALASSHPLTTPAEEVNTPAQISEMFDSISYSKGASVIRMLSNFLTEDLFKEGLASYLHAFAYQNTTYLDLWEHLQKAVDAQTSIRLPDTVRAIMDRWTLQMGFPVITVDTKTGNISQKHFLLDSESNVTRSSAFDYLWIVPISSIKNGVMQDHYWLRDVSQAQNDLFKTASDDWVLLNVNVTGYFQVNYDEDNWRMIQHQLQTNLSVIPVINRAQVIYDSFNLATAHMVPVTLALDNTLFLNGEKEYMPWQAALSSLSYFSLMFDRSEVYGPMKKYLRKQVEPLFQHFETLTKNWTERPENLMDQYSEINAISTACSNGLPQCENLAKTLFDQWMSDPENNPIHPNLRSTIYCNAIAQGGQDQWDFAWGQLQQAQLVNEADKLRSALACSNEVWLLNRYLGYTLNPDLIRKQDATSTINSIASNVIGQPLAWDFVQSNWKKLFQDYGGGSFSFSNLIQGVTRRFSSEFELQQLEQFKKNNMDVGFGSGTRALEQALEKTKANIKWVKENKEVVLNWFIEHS
This section presents IC50 values reported for Aminopeptidase N (Sus scrofa) in the literature.
Only the number, expressed in µM, is required.

1. CCCCCNC(=O)[C@H](N)[C@@H](O)c1ccc([N+](=O)[O-])cc1; 522
2. COc1cc(C(=O)N[C@H](CCC(=O)O)C(=O)NNC(=O)c2cccnc2)cc(OC)c1OC; 72.4
3. CC(C)C[C@H](NC(=O)Nc1cccc(F)c1)C(=O)NO; 1.9

Inquiry: Entry under review: COC(=O)[C@H](CC(C)C)NC(=O)CC(=O)[C@H](N)Cc1ccccc1 . Reported IC50?
Reply text: 5.04

Inquiry: Entry under review: CC[C@@H](C)[C@H](NC(=O)NCc1cn(Cc2ccccc2)nn1)C(=O)NO . Reported IC50?
Reply text: 13.6

Inquiry: Entry under review: O=C(CN1C(=O)C[C@H](NC(=O)[C@@H]2CCCN2)C1=O)NO . Reported IC50?
Reply text: 1

Inquiry: Entry under review: C/C(=N\NC(=O)Cn1c(=O)c(C)nc2ccccc21)c1ccccc1Cl . Reported IC50?
Reply text: 439

Inquiry: Entry under review: Cc1cccc(NC(=O)N[C@@H](CC(C)C)C(=O)NO)c1 . Reported IC50?
Reply text: 0.24
